- experimental-system: Human Cot (Homo sapiens (Human))
- Sequence (P41279 30-397): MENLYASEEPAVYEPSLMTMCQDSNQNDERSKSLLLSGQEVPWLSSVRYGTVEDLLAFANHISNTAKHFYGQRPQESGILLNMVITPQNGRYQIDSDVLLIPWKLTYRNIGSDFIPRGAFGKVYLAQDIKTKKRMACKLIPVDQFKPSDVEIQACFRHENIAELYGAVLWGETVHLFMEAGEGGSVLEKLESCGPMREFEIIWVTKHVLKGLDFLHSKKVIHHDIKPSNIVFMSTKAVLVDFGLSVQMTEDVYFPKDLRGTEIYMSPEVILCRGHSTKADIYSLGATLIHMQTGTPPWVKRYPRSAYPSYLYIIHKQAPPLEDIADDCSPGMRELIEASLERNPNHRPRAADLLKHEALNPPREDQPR
- assay-notes: High Throughput Cot Biochemical Assay
- condition: IC50 HTRF, Cot HTRF (TR-FRET KinEASE) biochemical assay, 400 μM ATP
reported-endpoint: pIC50
Numbers only, as −log10 of the molar value.

Enquiry: Looking for the measured pIC50 of CC(C)(C)CNc1c(C#N)cnc2c(Cl)cc(N[C@H](c3cn(C4(C(F)(F)F)CC4)nn3)c3ccc(Cl)c4ncccc34)cc12 , can you help?
Return: 7.77

Enquiry: And Cc1ccc([C@H](Nc2cc(C#N)c3ncc(C#N)c(NCC(C)(C)C)c3c2)c2cn(C3(C(F)(F)F)CC3)nn2)cn1 ?
Return: 7.66

Enquiry: Input CC1(n2cc([C@@H](Nc3cc(Cl)c4ncc(C#N)c(NCC(C)(C)C(F)(F)F)c4c3)c3ccc(F)c4ncccc34)nn2)CC1
Return: 8.70

Enquiry: Continue with COc1ncccc1[C@H](Nc1cc(C#N)c2ncc(C#N)c(NCC(C)(C)C)c2c1)c1cn(C2(C(F)(F)F)CC2)nn1
Return: 8.00

Let us examine a further case.
Enquiry: # get_value(readout='pIC50', item= Cc1nc(F)ccc1[C@@H](c1cn(C2(C(F)(F)F)CC2)nn1)N(C)c1cc(Cl)c2ncc(C#N)c(NCC(C)(C)C)c2c1 )
Return: 6.61

* * *

- experimental-system: UniProt P41279
- assay-notes: High Throughput Cot Biochemical Assay
- condition: IC50 HTRF, Cot HTRF (TR-FRET) biochemical assay
Would you kindly list pIC50 for each of these molecules?
Answers are plain numbers, as −log10 of the molar value.

Solved entries (count: 2):
Enquiry: Could you share what pIC50 was measured for CC(C)(C)CNc1c(C#N)cnc2c(C#N)cc(N[C@H](c3cn(C4CC4)nn3)c3cccc4cnccc34)cc12 , tested on UniProt P41279?
Return: 9.00

Enquiry: Item: N#Cc1cnc2c(Cl)cc(N[C@H](c3cn(C4CC4)nn3)c3ccc(F)nc3F)cc2c1Nc1cnc(F)c(F)c1
Return: 8.10

---
Enquiry: Missing value: pIC50, UniProt P41279, entry [2H][C@](Nc1cc(Cl)c2ncc(C#N)c(Nc3cnc(F)c(F)c3)c2c1)(c1ccc(F)nc1)c1cn(C2CC2)nn1 . Fill in?
Return: 8.52

* * *

- System: TNFα
- assay-notes: Cot Monocyte TNFα Cell Based Assay
- condition: Homo sapiens, Monocyte, read-out: EC50 TNF, LPS-stimulated human monocytes, TNFα
reported-endpoint: EC50 (nM)
Give bare numbers, in nM.

Example results:
Enquiry: Please report the recorded EC50 for CC[C@@H](Nc1c(C#N)cnc2c(Cl)cc(N[C@@H](c3cccnc3)c3cn(C4COC4)nn3)cc12)c1ccccc1 .
Return: 111

Enquiry: // same read-out, input: Cc1nc(F)ccc1[C@H](Nc1cc(F)c2ncc(C#N)c(NCC(C)(C)C)c2c1)c1cn(C2(C(F)(F)F)CC2)nn1
Return: 154

Enquiry: Same for CC1(C)COCCC1Nc1c(C#N)cnc2c(C#N)cc(N[C@H](c3cn(C4(C(F)(F)F)CC4)nn3)c3cccc4ncsc34)cc12 (stereo partly shown)
Return: 73

Now look at this one.
Enquiry: GET /values?readout=EC50&item= CCN1CCC(n2cc([C@@H](Nc3cc(Cl)c4ncc(C#N)c(Nc5ccc(F)c(Cl)c5)c4c3)c3cc(C#N)cs3)nn2)CC1
Return: 81

Where these numbers come from: patent US11066414B2
